biological target: human urotensin II receptor (Homo sapiens); construct: expressed in transfected cells; host or cells: NIH3T3 cells; test: Receptor Selection and Amplification (R-SAT) functional assay, NIH3T3 cells transfected with human urotensin II receptor and β-galactosidase marker; type: cell-based; conditions: NIH3T3, Table 3, percent activation normalized to the reference ligand assigned 100%, read-out: Efficacy
METRIC_NAME: Emax (%)

In one line, give reported Emax of the entry CCc1ccccc1C(=O)OC(CCN(C)C)c1ccc(Cl)cc1.Cl (centres unmarked) [4b, HCl] .
128

Note down Emax recorded for Cc1ccccc1C(=O)OC(CCN(C)C)c1ccc(Cl)cc1.Cl (centres unmarked) [4a, HCl]
126

Report Emax, nothing else, for this compound: Cc1ccccc1C(=O)NC(CCN(C)C)c1ccc(Cl)cc1.O=C(O)C(=O)O (centres unmarked) [5b, oxalate]
175

Return Emax for the following compound: CN(C)CCC(NC(=O)c1ccc2c(c1)OCO2)c1ccc(Cl)cc1.O=C(O)C(=O)O (centres unmarked) [5l, oxalate]
148

Output Emax of CN(C)CCC(OC(=O)c1ccc(-c2ccccc2)cc1)c1ccc(Cl)cc1.Cl (centres unmarked) [4m, HCl]
53

A = Cc1cc(C)c(C(=O)OC(CCN(C)C)c2ccc(Cl)cc2)cc1C.Cl (centres unmarked) [4i, HCl]
B = CN(C)CCC(NC(=O)Nc1ccc(C(C)(C)C)cc1)c1ccc(Cl)cc1 (centres unmarked) [8c]
Hey, which is lower on measured Emax, A or B ? Please respond with the label that marks your chosen entry.
A

P = CN(C)CCC(OC(=O)c1ccc2ccccc2c1)c1ccc(Cl)cc1.Cl (centres unmarked) [4l, HCl]
Q = CN(C)CCC(NC(=O)c1ccc(-c2ccccc2)cc1)c1ccc(Cl)cc1.O=C(O)C(=O)O (centres unmarked) [5o, oxalate]
# min-compare on Emax between P and Q Respond using the label that marks the chosen record.
P

a = CN(C)CCC(OC(=O)Nc1ccc(C(C)(C)C)cc1)c1ccc(Cl)cc1 (centres unmarked) [7c]
b = Cc1ccccc1NC(=O)OC(CCN(C)C)c1ccc(Cl)cc1 (centres unmarked) [7a]
Of a and b , whose reported Emax is numerically smaller? API: response body contains the label of the selected item.
a

* * *

Below, each of the compounds is paired with its reported Emax value.
target: human urotensin II receptor (Homo sapiens); construct: expressed in transfected cells; host or cells: NIH3T3 cells; assay: Receptor Selection and Amplification (R-SAT) functional assay, NIH3T3 cells transfected with human urotensin II receptor and β-galactosidase marker; format: cell-based; conditions: NIH3T3, Table 3, percent activation normalized to the reference ligand assigned 100%, read-out: Efficacy
Counter-ions that a name gives are not always drawn.

Look over these answered cases.
Please supply the value of reported Emax for the item CN(C)CCC(NC(=O)Nc1ccc2ccccc2c1)c1ccc(Cl)cc1 (stereo not shown)
89 to 129%

Return value of Emax for input COc1ccc(NC(=O)NC(CCN(C)C)c2ccc(Cl)cc2)cc1 (stereo not shown) , no commentary.
176 to 231%

Please look at this compound and report its Emax: CN(C)CCC(OC(=O)c1ccc(C(F)(F)F)cc1)c1ccc(Cl)cc1 (stereo not shown) [4q, oxalate]
36 to 38%

Turning now to a further record.
Complete the entry with Emax for CN(C)CCC(NC(=O)Nc1ccc(C(F)(F)F)cc1)c1ccc(Cl)cc1 (stereo not shown)
93 to 120%

* * *

target: human urotensin II receptor (Homo sapiens, UniProt Q9UKP6); construct: expressed in transfected cells; host or cells: NIH3T3 cells; experiment: Receptor Selection and Amplification (R-SAT) functional assay, NIH3T3 cells transfected with human urotensin II receptor and β-galactosidase marker; assay type: cell-based; conditions: NIH3T3, Table 3, percent activation normalized to the reference ligand assigned 100%, read-out: Efficacy
Sequence (Q9UKP6 whole entry): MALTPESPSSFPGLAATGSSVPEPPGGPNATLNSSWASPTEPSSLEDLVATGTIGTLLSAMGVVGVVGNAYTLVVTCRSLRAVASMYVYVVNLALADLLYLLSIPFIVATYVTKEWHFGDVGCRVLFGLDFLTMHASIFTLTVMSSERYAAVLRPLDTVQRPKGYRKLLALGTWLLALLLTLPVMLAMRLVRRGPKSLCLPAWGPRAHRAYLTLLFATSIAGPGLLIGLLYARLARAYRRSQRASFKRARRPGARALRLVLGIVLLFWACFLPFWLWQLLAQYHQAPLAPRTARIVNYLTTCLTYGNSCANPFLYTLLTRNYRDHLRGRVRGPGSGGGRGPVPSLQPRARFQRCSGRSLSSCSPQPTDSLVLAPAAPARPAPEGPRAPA
Counter-ions that a name gives are not always drawn.
METRIC_NAME: Emax

Please report Emax for the following molecule: CN(C)CCC(OC(=O)Nc1ccc2ccccc2c1)c1ccc(Cl)cc1 (stereo not drawn)
74 to 107%

Please give measured Emax of the following entry: CN(C)CCC(NC(=O)c1ccc(C(F)(F)F)cc1)c1ccc(Cl)cc1 (stereo not drawn) [5q, oxalate]
100 to 127%

Fill in reported Emax for this entry: CN(C)CCC(NC(=O)Nc1ccc(-c2ccccc2)cc1)c1ccc(Cl)cc1 (stereo not drawn)
75 to 111%

Annotate the molecule CCc1ccccc1C(=O)NC(CCN(C)C)c1ccc(Cl)cc1 (stereo not drawn) [5c, oxalate] with its measured Emax.
140%

Please report Emax for the following molecule: Cc1c(Cl)cccc1C(=O)NC(CCN(C)C)c1ccc(Cl)cc1.O=C(O)C(=O)O (stereo not drawn) [5h, oxalate]
142%

Further cases:
Please report Emax for the following molecule: CN(C)CCC(NC(=O)c1ccc(-c2ccccc2)cc1)c1ccc(Cl)cc1 (single isomer, unassigned; (-)) [(−) 5o, oxalate]
112 to 114%

Recall and state the measured Emax for CN(C)CCC(NC(=O)NCc1ccccc1)c1ccc(Cl)cc1 (stereo not drawn) .
166 to 193%

Indicate its recorded Emax; the molecule in question is CN(C)CCC(NC(=O)Nc1ccc(Oc2ccccc2)cc1)c1ccc(Cl)cc1 (stereo not drawn)
102 to 119%

Report Emax, nothing else, for this molecule: COc1ccc(NC(=O)OC(CCN(C)C)c2ccc(Cl)cc2)cc1 (stereo not drawn)
130 to 223%

Reference source: patent US20070043104A1
